Entry source: patent US9951068B2

The entries below are paired with their reported pIC50.
Target: human ether a go-go related gene (hERG) K+ channel (Homo sapiens (Human), UniProt Q12809)
Sequence (Q12809 whole entry): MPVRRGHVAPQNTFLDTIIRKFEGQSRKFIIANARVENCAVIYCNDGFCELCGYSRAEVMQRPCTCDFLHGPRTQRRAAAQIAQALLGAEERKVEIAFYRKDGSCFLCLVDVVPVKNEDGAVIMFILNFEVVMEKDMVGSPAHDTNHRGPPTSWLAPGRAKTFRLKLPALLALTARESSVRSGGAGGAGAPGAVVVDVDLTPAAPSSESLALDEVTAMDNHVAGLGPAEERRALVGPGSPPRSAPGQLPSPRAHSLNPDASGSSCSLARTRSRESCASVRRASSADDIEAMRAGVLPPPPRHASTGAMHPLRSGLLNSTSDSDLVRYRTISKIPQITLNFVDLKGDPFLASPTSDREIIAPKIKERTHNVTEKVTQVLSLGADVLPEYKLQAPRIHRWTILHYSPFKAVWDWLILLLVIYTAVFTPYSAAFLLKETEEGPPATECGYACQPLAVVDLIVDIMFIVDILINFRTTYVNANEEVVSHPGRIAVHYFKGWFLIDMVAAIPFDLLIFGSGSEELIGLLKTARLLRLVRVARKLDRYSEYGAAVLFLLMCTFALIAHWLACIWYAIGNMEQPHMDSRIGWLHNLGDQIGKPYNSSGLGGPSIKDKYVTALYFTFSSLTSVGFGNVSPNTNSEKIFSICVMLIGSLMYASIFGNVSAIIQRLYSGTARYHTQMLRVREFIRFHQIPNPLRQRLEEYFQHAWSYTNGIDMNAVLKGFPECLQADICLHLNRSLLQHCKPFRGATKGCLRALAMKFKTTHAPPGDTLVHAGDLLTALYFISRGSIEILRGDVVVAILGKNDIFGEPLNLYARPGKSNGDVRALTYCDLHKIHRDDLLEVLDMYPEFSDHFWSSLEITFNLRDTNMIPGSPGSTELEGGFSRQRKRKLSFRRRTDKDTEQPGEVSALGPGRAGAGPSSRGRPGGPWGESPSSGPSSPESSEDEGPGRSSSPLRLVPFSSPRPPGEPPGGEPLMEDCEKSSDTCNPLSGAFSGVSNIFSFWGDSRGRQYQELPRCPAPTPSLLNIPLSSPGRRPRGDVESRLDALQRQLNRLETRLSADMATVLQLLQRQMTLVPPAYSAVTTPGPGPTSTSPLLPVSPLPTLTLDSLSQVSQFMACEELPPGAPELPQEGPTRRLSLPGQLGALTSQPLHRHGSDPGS
Test: hERG assay, IonWorks patch clamp electrophysiology
Format: cell-based
Conditions: Chinese Hamster Lung cell line stably expressing hERG; max assay concentration 11 uM
pIC50: −log10 of the molar value.

[
  {
    "Compound": "CS(=O)(=O)N1CCN(c2ccc(-c3nc4ccncc4n3-c3ccc(F)cc3)cn2)CC1 [Example 89]",
    "pIC50": "< 5.00"
  },
  {
    "Compound": "Clc1ccc(-n2c(-c3ccc(N4CCOCC4)nc3)nc3ccncc32)nc1 [Example 81]",
    "pIC50": "< 5.00"
  },
  {
    "Compound": "Cc1ccc(-n2c(-c3cnc(N4CCOCC4)nc3)nc3ccncc32)cc1 [Example 57]",
    "pIC50": "< 5.00"
  },
  {
    "Compound": "Cn1cncc1-c1cc2ccncc2n1-c1ccc(Cl)cc1 [Example 136]",
    "pIC50": "5.00 to 6.00"
  },
  {
    "Compound": "NC(=O)N1CCN(c2ccc(-c3nc4ccncc4n3-c3ccc(F)cc3)cn2)CC1 [Example 92]",
    "pIC50": "< 5.00"
  }
]
